Target: T1, human GLP-2 receptor (hGLP2-R) (human, UniProt O95838)
T1 sequence: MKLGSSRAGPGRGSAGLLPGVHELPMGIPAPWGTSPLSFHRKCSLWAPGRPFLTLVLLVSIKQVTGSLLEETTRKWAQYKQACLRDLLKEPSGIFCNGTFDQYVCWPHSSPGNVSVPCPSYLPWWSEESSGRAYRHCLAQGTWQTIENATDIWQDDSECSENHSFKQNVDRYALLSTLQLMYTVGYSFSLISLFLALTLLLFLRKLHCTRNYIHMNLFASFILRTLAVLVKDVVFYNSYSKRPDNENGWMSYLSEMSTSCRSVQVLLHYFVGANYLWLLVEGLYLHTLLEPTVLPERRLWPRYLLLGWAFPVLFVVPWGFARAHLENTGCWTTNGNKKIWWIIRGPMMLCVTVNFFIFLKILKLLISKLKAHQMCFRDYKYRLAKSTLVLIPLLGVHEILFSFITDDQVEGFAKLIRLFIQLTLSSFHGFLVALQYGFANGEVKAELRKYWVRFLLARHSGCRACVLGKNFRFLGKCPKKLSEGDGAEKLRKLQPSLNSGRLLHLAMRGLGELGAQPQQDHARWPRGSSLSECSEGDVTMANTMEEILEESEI
Assay: cell-based or functional assay
Numbered stars: 1 amine (or outer) side, 2 acyl side, 3 side chain; on linkers, the order of the positions; unused ones are H or OH. Square brackets hold non-standard residues; d marks the D form. Side chains are listed from the residue outwards. * marks the point of attachment. C20 diacid = O=C(O)CCCCCCCCCCCCCCCCCCC(=O)*; γGlu = O=C(O)[C@H](CCC(=O)[*:2])N[*:1]; KEK = Lys-Glu-Lys peptide sequence; AEEA = NCCOCCOCC(=O)O; Aib = CC(C)(N)C(=O)O
Could you please report measured EC50 GLP-2 (nM), cAMP AlphaScreen for the items listed next?
Give a bare numeral; the unit nM is implied.

Enquiry: Which EC50 GLP-2 (nM), cAMP AlphaScreen is listed for H-H[Aib]EGTFTSELATILDK([KEK-γGlu-C20 diacid])QAARDFIAWLIQHKITD-OH [Compound 51] ?
Return: 0.18

Enquiry: Can you handle H-H[Aib]EGSFTSELATILDAKAAK([AEEA-KEK-γGlu-C20 diacid])DFIAWLIEHKITD-OH [Compound 68] next?
Return: 0.1

Enquiry: Can you handle H-H[Aib]EGTFSSELATILDK([AEEA-KEK-γGlu-C20 diacid])QAARDFIAWLIQHKITD-OH [Compound 48] next?
Return: 0.054

Enquiry: Can you handle H-H[Aib]EGTFTSELATILDEQAAK([AEEA-AEEA-KEK-γGlu-C20 diacid])DFIAWLIEHKITD-OH [Compound 67] next?
Return: 0.22

Enquiry: Can you handle H-H[Aib]EGTFTSELATILDEQAAK([AEEA-KEK-γGlu-C20 diacid])DFIAWLIEHKITD-OH [Compound 65] next?
Return: 0.35
